The reader will find reported CC50 values listed item by item below.
Assay: in vitro
Conditions: human

CCN(CC)CCCn1c(Cc2ccccc2)nc2cc(C(C)=NNC(N)=S)ccc21 ... > 100 µM

Kindly review the next compound as well.
Lookup: GET /values?readout=CC50&item= CCN(CC)CCCn1c(Cc2ccccc2)nc2cc(C(C)=NNC(N)=O)ccc21
Found: > 100 µM

###

The reader will find reported CC50 values listed item by item below.
Assay: in vitro
Details: African green monkey
Express your answer in µM, writing the number without its unit.

CCN(CC)CCCn1c(Cc2ccc(OC)cc2)nc2cc(C(C)=NNC(N)=O)ccc21 ... 43

Kindly review the next compound as well.
Lookup: GET /values?readout=CC50&item= CCN(CC)CCCn1c(Cc2ccccc2)nc2cc(C(C)=NNC(N)=S)ccc21
Found: 44
